- system: T1, TP-24 peptide (human)
- T1 sequence (peptide, biotinylated): REFFSQYGDVMDVFI
- methodSummary: indirect ELISA, biotinylated 15-mer on streptavidin plate
quantityMeasured: OD (O.D. (405 nm))
Answers are plain numbers.

Please review the following examples before continuing.
| binder | OD (O.D. (405 nm)) |
| --- | --- |
| ACI-7062-401A2-Ab2 (antibody, IgG1, V domains shown) VH: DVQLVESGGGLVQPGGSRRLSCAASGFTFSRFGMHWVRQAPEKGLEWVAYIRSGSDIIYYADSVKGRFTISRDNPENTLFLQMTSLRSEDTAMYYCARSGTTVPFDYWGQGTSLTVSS VL: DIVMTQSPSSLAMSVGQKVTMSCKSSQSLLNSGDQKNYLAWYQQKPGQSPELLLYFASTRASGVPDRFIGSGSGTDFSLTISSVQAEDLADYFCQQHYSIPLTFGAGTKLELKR | 2.5 |
| ACI-7062-404D6-Ab2 (antibody, IgG3, V domains shown) VH: QVTLKESGPGILQPSQTLSLTCSFSGFSLSTYGIGVGWIRQPSGKGLEWLAHIWWNDYKYYNTALKSRLTISKDTSNNRVFLKIASVDTADTATYYCARVYGNLYYFDYWGQGTTLTVSS VL: DVLMTQTPLSLPVSLGDQASISCRSSQSIVHGSGNTYLEWYLQKPGQSPKLLIYKVSNRFSGVPDRFSGSGSGTDFTLRISRVEAEDLGVYYCFQGSHVPTFGAGTKLELKR | 4 |
| ACI-7062-415C4-Ab1 (antibody, IgG1, V domains shown) VH: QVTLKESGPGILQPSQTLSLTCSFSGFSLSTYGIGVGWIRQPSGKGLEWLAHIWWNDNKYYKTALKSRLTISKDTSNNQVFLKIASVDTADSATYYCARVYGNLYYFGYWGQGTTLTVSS VL: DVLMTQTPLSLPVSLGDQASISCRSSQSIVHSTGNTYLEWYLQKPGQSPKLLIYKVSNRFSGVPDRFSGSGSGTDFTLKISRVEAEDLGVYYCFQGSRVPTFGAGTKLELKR | 3.8 |

I'm hoping you can list OD (O.D. (405 nm)) for every binder here, please.
1. ACI-7062-410H3-Ab1 (antibody, IgG1, V domains shown) VH: DVQLVESGGGLVQPGGSRRLSCAASGFTFSSFGMHWVRQAPEKGLEWVAYIRSGSDIIYYADSVKGRFTISRDNPENTLFLQMTSLRSEDTAMYYCARSGTTVPFDYWGQGTSLTVSS VL: DIVMTQSPSSLAMSVGQKVTMSCKSSQSLLNSGNQKNYLAWYQQKPGQSPELLLYFASTRASGVPDRFIGSGSGTDFTLTISSVQAEDLADYFCQQHYSIPLTFGAGTKLELKR
2. ACI-7062-416A11-Ab1 (antibody, IgG2a, V domains shown) VH: QVTLKESGPGILQSSQTLSLTCSFSGFSLSTYGIGVGWIRQPSGKGLEWLAHIWWNDNKYYNTALKSRLTISKDTSNNQVFLKIASVDTADAATYYCARVYGNLYYFGYWGQGTTLTVSS VL: DVLMTQTPLSLPVSLGDRASISCRSSQSIVHSSGNTYLEWYLQKPGQSPKLLIYKVSNRFSGVPDRFSGSGSGTDFTLKISRVEAEDLGVYYCFQGSRVPTFGAGTKLELKR

// result
1. 3.8
2. 2.9

// query Provide OD (O.D. (405 nm)) value for the following binder: ACI-7062-412A7-Ab1 (antibody, IgG2b, V domains shown) VH: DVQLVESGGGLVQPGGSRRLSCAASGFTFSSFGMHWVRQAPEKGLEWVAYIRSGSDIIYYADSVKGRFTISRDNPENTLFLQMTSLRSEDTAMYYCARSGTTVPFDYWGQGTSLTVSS VL: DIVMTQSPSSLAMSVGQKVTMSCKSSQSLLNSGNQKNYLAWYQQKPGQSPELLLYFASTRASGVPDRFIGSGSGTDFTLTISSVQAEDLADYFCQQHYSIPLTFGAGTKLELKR
// result 4
